Recorded protein stability index values for a group of variants are listed next.
B1: KCNA4 (parent)
chain: YQLGEEALLKFREDEGFVREEEDR

- Variants of: B1
- procedure text: protein stability index of a GFP-peptide fusion (GPS, HEK-293T) (PSI 1-6); higher = more stable;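 further: lentivirally expressed fusions sorted by FACS into six bins by GFP to DsRed ratio, PSI derived from sequencing read proportions per bin multiplied by bin number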
- stated conditions: c terminus: a fixed tail appended

| mutation annotation | protein stability index |
| --- | --- |
| L9I | 5 |
| L3F | 4.7 |
| E21K | 4.08 |
| Y1R | 5.81 |
| E6S | 4.67 |
| E15K | 4.16 |
| E5S | 4.38 |
